The reported numbers originate from ChEMBL document CHEMBL3792304.

experiment: Cytotoxicity against human Huh7ET cells expressing LucUbiNeo fusion protein measured after 4 hrs at 37 degC by MTT assay; type: cell-based, Huh-7
METRIC_NAME: CC50 at 4 h (µM)
The reply should be a number in µM, with the unit left off.

Consider the reported CC50 at 4 h for these molecules:
COCCOc1nc(N)nc2c1CC(c1c(Cl)cccc1Cl)C(=O)N2 (stereo not given) ... 65
O=c1[nH]c2nc(Nc3ccccc3)[nH]c(=O)c2cc1-c1ccc(F)cc1 ... 13.5
CC(C)Cn1c(=O)c(-c2c(Cl)cccc2Cl)cc2c(N)nc(Nc3ccccc3)nc21 ... 185
O=C1Nc2nc(Nc3ccccc3)[nH]c(=O)c2CC1c1c(F)cccc1F (stereo not given) ... 5.3

Next:
Task: If you can, please state the reported CC50 at 4 h value of Nc1nc(Nc2ccccc2)nc2[nH]c(=O)c(-c3c(F)cccc3F)cc12 .
Output: 2.4

----------
assay: Cytotoxicity against human Huh7ET cells expressing LucUbiNeo fusion protein measured after 4 hrs at 37 degC by MTT assay; format: cell-based, Huh-7
Flag rule - CC50 at 4 h less than 80 µM flags 1.0; the remaining entries get 0.0.

# example entries with known answers
CCCn1c(=O)c(-c2c(Cl)cccc2Cl)cc2c(N)nc(Nc3ccccc3)nc21 ... 0.0
Nc1nc(Nc2ccccc2)nc2c1cc(-c1c(Cl)cccc1Cl)c(=O)n2CCO ... 1.0
O=C1Nc2nc(Oc3ccccc3)nc(On3nnc4ccccc43)c2CC1c1ccc(F)cc1 (stereo not given) ... 1.0

For the next question, use this molecule.
Task: Given CCCOCCNc1nc(N)nc2c1cc(-c1ccc(F)cc1)c(=O)n2C , is recorded CC50 at 4 h strictly lower than 80 µM?
Output: 1.0

----------
assay: Cytotoxicity against human Huh7ET cells expressing LucUbiNeo fusion protein measured after 4 hrs at 37 degC by MTT assay; type: cell-based, Huh-7
Note to self: class labels come from recorded CC50 at 4 h, ranges listed here: zone 1 (below 10 µM), zone 2 (10 µM to below 50 µM), zone 3 (50 µM or more)

Reference set (5 entries):
O=C1Nc2nc(Nc3ccccc3)nc(On3nnc4ccccc43)c2CC1c1ccc(Cl)cc1Cl (stereo not given) ... zone 1
Nc1nc(Nc2ccccc2)nc2[nH]c(=O)c(-c3ccccc3)cc12 ... zone 2
Cn1c(=O)c(-c2c(Cl)cccc2Cl)cc2c(N)nc(N)nc21 ... zone 3
CCCCCNc1nc(N)nc2[nH]c(=O)c(-c3c(Cl)cccc3Cl)cc12 ... zone 2
COc1ccc(Nc2nc3[nH]c(=O)c(-c4ccc(F)cc4)cc3c(=O)[nH]2)cc1 ... zone 2

Task: Into which category would you place Cn1c(=O)c(-c2c(F)cccc2F)cc2c(N)nc(Nc3ccccc3)nc21 ?
Output: zone 2

Task: Looking at CCCOCCNc1nc(Oc2ccccc2)nc2[nH]c(=O)c(-c3ccc(F)cc3)cc12 , which class would you pick?
Output: zone 3

Task: Exercise: read the entry Cn1c(=O)c(-c2c(F)cccc2C(F)(F)F)cc2c(N)nc(Nc3ccccc3)nc21 and state which class it falls under.
Output: zone 1

Task: Category of Cn1c(=O)c(-c2c(Br)cccc2Br)cc2c(N)nc(Nc3ccccc3)nc21 :
Output: zone 1

----------
assay: Cytotoxicity against human Huh7ET cells expressing LucUbiNeo fusion protein measured after 4 hrs at 37 degC by MTT assay; assay type: cell-based, Huh-7
Property: CC50 at 4 h; scope: individual compounds
Just the number please, in µM, no unit attached.

As a guide, the following entries are already answered.
Cn1c(=O)c(-c2ccc(F)cc2)cc2c(N3CCCC3)nc(N)nc21 ... 111
CCCOCCNc1nc(N)nc2[nH]c(=O)c(-c3ccc(F)cc3)cc12 ... 130
CSc1nc2c(c(=O)[nH]1)CC(Cc1ccccc1)C(=O)N2 (stereo unspecified) ... 38.3

Task: // query CC50 at 4 h value for entry O=C1Nc2nc(NCc3ccccc3)[nH]c(=O)c2CC1c1c(Cl)cccc1Cl (stereo unspecified)
Output: 69

Task: Please look up its CC50 at 4 h: Nc1nc(Nc2ccccc2)nc2[nH]c(=O)c(-c3c(Br)cccc3Br)cc12
Output: 166

Task: Reported CC50 at 4 h, compound Cn1c(=O)c(-c2ccccc2)cc2c(N)nc(Nc3ccccc3)nc21 : ____
Output: 23.5
